target under test: PD-1/PD-L1 (Homo sapiens (Human), UniProt Q9NZQ7)
Sequence (Q9NZQ7 other isoform, or with tags, fused parts or gaps): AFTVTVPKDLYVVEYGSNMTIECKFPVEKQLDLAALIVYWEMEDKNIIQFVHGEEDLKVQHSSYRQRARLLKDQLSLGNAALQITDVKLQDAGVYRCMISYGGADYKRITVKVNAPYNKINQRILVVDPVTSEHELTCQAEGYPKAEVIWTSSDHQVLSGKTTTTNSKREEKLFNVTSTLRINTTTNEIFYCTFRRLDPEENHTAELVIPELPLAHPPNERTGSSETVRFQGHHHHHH
assay procedure: PD-1/PD-L1 Homogenous Time-Resolved Fluorescence (HTRF) binding assay
condition set: PD-L1-His 10 nM, PD-1-Ig 20 nM
IC50 overview
result type: IC50

• N#Cc1cncc(COc2cc(OC3CCc4c(-c5cccc(OCCCNC[C@H](O)CO)c5Cl)cccc43)c(Cl)cc2CN[C@@H](CCO)C(=O)O)c1 (stereo partly drawn) [Example 1021] = 1 nM
• CN1CCCC(COc2cccc(-c3cccc4c3CCC4Oc3cc(OCc4cncc(C#N)c4)c(CO)cc3Cl)c2Cl)C1 (stereo not drawn) [Example 1003] = 9.1 nM
• CN1CCCC(COc2cccc(-c3cccc4c3CCC4Oc3cc(OCc4cncc(C#N)c4)c(CN[C@](C)(CO)C(=O)O)cc3Cl)c2Cl)C1 (stereo partly drawn) [Example 1002] = 0.9 nM
• CC(=O)NC1CCN(CCCOc2cccc(-c3cccc4c3CCC4Oc3cc(OCc4cncc(C#N)c4)c(CN4CCCC[C@H]4C(=O)O)cc3Cl)c2Cl)CC1 (stereo partly drawn) [Example 1017] = 0.2 nM
• Cc1c(OCCCN2CC[C@@H](O)C2)cccc1-c1cccc2c1CCC2Oc1cc(OCc2cncc(C#N)c2)c(CO)cc1Cl (stereo partly drawn) [Example 1013] = 18.1 nM
• Cc1c(OCCCN2CC[C@@H](O)C2)cccc1-c1cccc2c1CCC2Oc1cc(OCc2cncc(C#N)c2)c(CN[C@](C)(CO)C(=O)O)cc1Cl (stereo partly drawn) [Example 1012] = 1.8 nM
• C[C@](CO)(NCc1cc(Cl)c(OC2CCc3c(-c4cccc(OCCCNC[C@H](O)CO)c4Cl)cccc32)cc1OCc1cncc(C#N)c1)C(=O)O (stereo partly drawn) [Example 1019] = 2.5 nM
• CC(=O)NC1CCN(CCCOc2cccc(-c3cccc4c3CCC4Oc3cc(OCc4cncc(C#N)c4)c(CN[C@@H](CCO)C(=O)O)cc3Cl)c2Cl)CC1 (stereo partly drawn) [Example 1018] = 2.9 nM
• CN1CCC[C@H](COc2cccc(-c3cccc4c3CC[C@@H]4Oc3cc(OCc4cncc(C#N)c4)c(CO)cc3Cl)c2Cl)C1 [Example 1009] = 24.1 nM

* * *

target under test: PD-1/PD-L1 (Homo sapiens (Human), UniProt Q9NZQ7)
assay procedure: PD-1/PD-L1 Homogenous Time-Resolved Fluorescence (HTRF) binding assay
condition set: PD-L1-His 10 nM, PD-1-Ig 20 nM
Recorded IC50, one value per entry.
result type: IC50 (nM)

* Cc1c(OCCCN2CC[C@@H](O)C2)cccc1-c1cccc2c1CCC2Oc1cc(OCc2cncc(C#N)c2)c(CN[C@@H](CCO)C(=O)O)cc1Cl (stereo partly drawn) | 1.9
* CN1CCC[C@@H](COc2cccc(-c3cccc4c3CC[C@H]4Oc3cc(OCc4cncc(C#N)c4)c(CN[C@](C)(CO)C(=O)O)cc3Cl)c2Cl)C1 | 3.5
* CN1CCC[C@H](COc2cccc(-c3cccc4c3CC[C@H]4Oc3cc(OCc4cncc(C#N)c4)c(CN[C@](C)(CO)C(=O)O)cc3Cl)c2Cl)C1 | 2
* CN1CCC[C@@H](COc2cccc(-c3cccc4c3CC[C@@H]4Oc3cc(OCc4cncc(C#N)c4)c(CO)cc3Cl)c2Cl)C1 | 10.6
* CC(=O)NC1CCN(CCCOc2cccc(-c3cccc4c3CCC4Oc3cc(OCc4cncc(C#N)c4)c(CN[C@](C)(CO)C(=O)O)cc3Cl)c2Cl)CC1 (stereo partly drawn) | 3.4
* CN1CCC[C@@H](COc2cccc(-c3cccc4c3CC[C@@H]4Oc3cc(OCc4cncc(C#N)c4)c(CN[C@](C)(CO)C(=O)O)cc3Cl)c2Cl)C1 | 3.9
* CN1CCCC(COc2cccc(-c3cccc4c3CCC4Oc3cc(OCc4cncc(C#N)c4)c(CN4CCCC[C@H]4C(=O)O)cc3Cl)c2Cl)C1 (stereo partly drawn) | 1.4
* Cc1c(OCCCN2CC[C@@H](O)C2)cccc1-c1cccc2c1CCC2Oc1cc(OCc2cncc(C#N)c2)c(CN2CCCC[C@H]2C(=O)O)cc1Cl (stereo partly drawn) | 5.8
* CN1CCC[C@H](COc2cccc(-c3cccc4c3CC[C@@H]4Oc3cc(OCc4cncc(C#N)c4)c(CN[C@](C)(CO)C(=O)O)cc3Cl)c2Cl)C1 | 3
* CN1CCC[C@H](COc2cccc(-c3cccc4c3CC[C@H]4Oc3cc(OCc4cncc(C#N)c4)c(CO)cc3Cl)c2Cl)C1 | 10.4
* CN1CCC[C@@H](COc2cccc(-c3cccc4c3CC[C@H]4Oc3cc(OCc4cncc(C#N)c4)c(CO)cc3Cl)c2Cl)C1 | 4.3
* N#Cc1cncc(COc2cc(OC3CCc4c(-c5cccc(OCCCNC[C@H](O)CO)c5Cl)cccc43)c(Cl)cc2CO)c1 (stereo partly drawn) | 10.9
